test system: rat small-intestinal brush border membrane vesicles; test: Inhibitory effect on 33PO4 uptake into rat small-intestinal brush border membrane vesicles (rapid filtration method); format: biochemical, Wistar female rat; details: 1 µM test compound; 33PO4 uptake into rat small-intestinal BBMVs, 60 seconds
Recorded Rate of uptake inhibition (%) (1 µM) values for a group of molecules are listed next.
readout kind: Rate of uptake inhibition (%) (1 µM)

>>> result_number("Cc1cc(-c2cc(C(F)(F)F)ccc2NC(=O)C2=C(O)[C@@]3(C)CCCN3N(Cc3cccc(F)c3F)C2=O)cnc1C#N")
57
>>> result_number("COc1cccc(-c2cc(C(F)(F)F)ccc2NC(=O)C2=C(O)[C@@]3(C)CCCN3N(Cc3ccc(C#CCCCO)c(F)c3F)C2=O)c1OC")
93
>>> result_number("CN(CCOCCC(=O)NCC(O)CO)CCOc1ccc(CN2C(=O)C(C(=O)Nc3ccc(C(F)(F)F)cc3-c3cc(C(F)(F)F)ncn3)=C(O)C3(CCCC3)N2C)c(F)c1F (stereo not drawn)")
24
>>> result_number("C[C@]12CCCN1N(Cc1ccccc1C#N)C(=O)C(C(=O)Nc1cc(F)c(Br)c(F)c1)=C2O")
82
>>> result_number("CSc1ccc(-c2cc(C(F)(F)F)ccc2NC(=O)C2=C(O)[C@@]3(C)CCCN3N(Cc3ccc(OCCCCOC[C@H](O)CO)c(F)c3F)C2=O)cn1")
66
>>> result_number("C[C@]12CCCN1N(Cc1ccc(Br)cc1F)C(=O)C(C(=O)Nc1cc(F)c(Br)c(F)c1)=C2O")
73

----------
Recorded Rate of uptake inhibition (%) (1 µM) values for a group of molecules are listed next.
system: rat small-intestinal brush border membrane vesicles; assay: Inhibitory effect on 33PO4 uptake into rat small-intestinal brush border membrane vesicles (rapid filtration method); format: biochemical, Wistar female rat; settings: 1 µM test compound; 33PO4 uptake into rat small-intestinal BBMVs, 60 seconds
readout kind: Rate of uptake inhibition (%) (1 µM)

>>> result("C[C@]12CCCN1N(Cc1ccc(Cl)cc1)C(=O)C(C(=O)Nc1cc(F)c(Br)c(F)c1)=C2O")
"77%"
>>> result("CN1N(Cc2ccc(OCCCCCC(=O)O)c(F)c2F)C(=O)C(C(=O)Nc2ccc(C(F)(F)F)cc2-c2cc(C(F)(F)F)ncn2)=C(O)C12CCCC2")
"22%"
>>> result("COC(=O)c1cccc(CN2C(=O)C(C(=O)Nc3ccc(C(F)(F)F)cc3-c3cc(C(F)(F)F)ncn3)=C(O)[C@@]3(C)CCCN23)c1")
"82%"
>>> result("C[C@]12CCCN1N(Cc1ccccc1Cl)C(=O)C(C(=O)Nc1cc(F)c(Br)c(F)c1)=C2O")
"95%"
>>> result("CN1N(Cc2ccc(OCCN3CCOCC3)c(F)c2F)C(=O)C(C(=O)Nc2ccc(C(F)(F)F)cc2-c2cc(C(F)(F)F)ncn2)=C(O)C12CCCCC2")
"21%"
>>> result("C[C@]12CCCN1N(Cc1cccc(OC(F)F)c1)C(=O)C(C(=O)Nc1ccc(C(F)(F)F)cc1-c1cc(C(F)(F)F)ncn1)=C2O")
"85%"
>>> result("CSc1ccc(-c2cc(C(F)(F)F)ccc2NC(=O)C2=C(O)C(C)(C)N(C)N(Cc3cccc(F)c3F)C2=O)cn1")
"63%"
>>> result("CN1[C@@H](C(C)(C)C)C(O)=C(C(=O)Nc2ccc(C(F)(F)F)cc2-c2ccnc(C#N)c2)C(=O)N1Cc1ccc(OCCN2CCOCC2)c(F)c1F")
"60%"

----------
Recorded Rate of uptake inhibition (%) (1 µM) values for a group of compounds are listed next.
test system: rat small-intestinal brush border membrane vesicles; assay: Inhibitory effect on 33PO4 uptake into rat small-intestinal brush border membrane vesicles (rapid filtration method); assay type: biochemical, Wistar female rat; conditions: 1 µM test compound; 33PO4 uptake into rat small-intestinal BBMVs, 60 seconds
readout kind: Rate of uptake inhibition (%) (1 µM)

>>> result_number("COCCN(C)CCOCCOCCOCCOCCOc1ccc(CN2C(=O)C(C(=O)Nc3ccc(C(F)(F)F)cc3-c3cc(C(F)(F)F)ncn3)=C(O)C3(CCCC3)N2C)c(F)c1F")
11
>>> result_number("COc1cccc(-c2cc(C(F)(F)F)ccc2NC(=O)C2=C(O)[C@@]3(C)CCCN3N(Cc3ccc(C#CCCCCO)c(F)c3F)C2=O)c1OC")
90
>>> result_number("Cc1ccccc1CN1C(=O)C(C(=O)Nc2ccc(C(F)(F)F)cc2-c2cc(C(F)(F)F)ncn2)=C(O)[C@@]2(C)CCCN12")
83
>>> result_number("CN1N(Cc2ccc(OCCOCCOCCOCCC(=O)NCC(O)CO)c(F)c2F)C(=O)C(C(=O)Nc2ccc(C(F)(F)F)cc2-c2cc(C(F)(F)F)ncn2)=C(O)C12CCCC2 (stereo not drawn)")
17
>>> result_number("C[C@]12CCCN1N(Cc1cccc(F)c1F)C(=O)C(C(=O)Nc1ccc(C(F)(F)F)cc1-c1cncc(C(F)(F)F)c1)=C2O")
87
>>> result_number("CN(C)C(=O)N1CCN(CCOc2ccc(CN3C(=O)C(C(=O)Nc4ccc(C(F)(F)F)cc4-c4cc(C(F)(F)F)ncn4)=C(O)C4(CCC4)N3C)c(F)c2F)CC1")
36
>>> result_number("CN1N(Cc2ccc(OCCN3CC(F)(F)C3)c(F)c2F)C(=O)C(C(=O)Nc2ccc(C(F)(F)F)cc2-c2cc(C(F)(F)F)ncn2)=C(O)C12CCCC2")
43
>>> result_number("CN1N(Cc2cccc(F)c2F)C(=O)C(C(=O)Nc2ccc(C(F)(F)F)cc2-c2cncc(C(F)(F)F)c2)=C(O)C1(C)C")
66
>>> result_number("C[C@]12CCCN1N(Cc1ccc(OCCN3CCOCC3)c(F)c1F)C(=O)C(C(=O)Nc1ccc(C(F)(F)F)cc1-c1cc(C(F)(F)F)ncn1)=C2O")
89
>>> result_number("C[C@]12CCCN1N(Cc1ccc(CCCCCCC(=O)O)c(F)c1F)C(=O)C(C(=O)Nc1ccc(Cl)cc1-c1ccc(C(F)(F)F)nc1)=C2O")
72
>>> result_number("CN1N(Cc2ccc(OCCCCCOC[C@H](O)CO)c(F)c2F)C(=O)C(C(=O)Nc2ccc(C(F)(F)F)cc2-c2cc(C(F)(F)F)ncn2)=C(O)C12CCC2")
42
>>> result_number("CN1N(Cc2ccc(OCCN3CCOCC3)c(F)c2F)C(=O)C(C(=O)Nc2ccc(Cl)cc2-c2cc(C(F)(F)F)ncn2)=C(O)C12CCCCC2")
36

----------
Recorded Rate of uptake inhibition (%) (1 µM) values for a group of compounds are listed next.
system: rat small-intestinal brush border membrane vesicles; experiment: Inhibitory effect on 33PO4 uptake into rat small-intestinal brush border membrane vesicles (rapid filtration method); type: biochemical, Wistar female rat; details: 1 µM test compound; 33PO4 uptake into rat small-intestinal BBMVs, 60 seconds
readout kind: Rate of uptake inhibition (%) (1 µM)

>>> result("CN1[C@@H](C(C)(C)C)C(O)=C(C(=O)Nc2ccc(Cl)cc2-c2ccc(C(F)(F)F)nc2)C(=O)N1Cc1cccc(F)c1F")
"48%"
>>> result("C[C@]12CCCN1N(Cc1cccc(F)c1F)C(=O)C(C(=O)Nc1ccc(C(F)(F)F)cc1-c1cnc3ccccc3c1)=C2O")
"90%"
>>> result("COCCOc1cc(NC(=O)C2=C(O)C3(CCCC3)N(C)N(Cc3ccc(OCCN(C)CCOC)c(F)c3F)C2=O)c(-c2ncnc(C(F)(F)F)c2C)cc1C(F)(F)F")
"35%"
>>> result("CN(CCOc1ccc(CN2C(=O)C(C(=O)Nc3ccc(C(F)(F)F)cc3-c3cc(C(F)(F)F)ncn3)=C(O)C3(CCCC3)N2C)c(F)c1F)C1COC1")
"52%"
>>> result("COCCN1CCN(CCOc2ccc(CN3C(=O)C(C(=O)Nc4ccc(C(F)(F)F)cc4-c4cc(C(F)(F)F)ncn4)=C(O)C4(CCCC4)N3C)c(F)c2F)CC1")
"29%"
>>> result("CCN1[C@@H](C(C)(C)C)C(O)=C(C(=O)Nc2ccc(Cl)cc2-c2ccc(C(F)(F)F)nc2)C(=O)N1Cc1cccc(F)c1F")
"40%"

----------
Recorded Rate of uptake inhibition (%) (1 µM) values for a group of compounds are listed next.
tested on: rat small-intestinal brush border membrane vesicles; assay: Inhibitory effect on 33PO4 uptake into rat small-intestinal brush border membrane vesicles (rapid filtration method); format: biochemical, Wistar female rat; conditions: 1 µM test compound; 33PO4 uptake into rat small-intestinal BBMVs, 60 seconds
readout kind: Rate of uptake inhibition (%) (1 µM)

>>> result_number("C[C@]12CCCN1N(Cc1ccc(SCCN3CCOCC3)c(F)c1F)C(=O)C(C(=O)Nc1ccc(C(F)(F)F)cc1-c1ccc(C(F)(F)F)nc1)=C2O.Cl")
79
>>> result_number("CN1N(Cc2ccc(OCCOCCNCC(O)CO)c(F)c2F)C(=O)C(C(=O)Nc2ccc(C(F)(F)F)cc2-c2cc(C(F)(F)F)ncn2)=C(O)C12CCCC2 (centres unmarked)")
22
>>> result_number("C[C@]12CCCN1N(Cc1ccc(C#CCN3CCOCC3)c(F)c1F)C(=O)C(C(=O)Nc1ccc(C(F)(F)F)cc1-c1ccc(C(F)(F)F)nc1)=C2O")
77
>>> result_number("CN1N(Cc2ccc(OCCN3CCOCC3)c(F)c2F)C(=O)C(C(=O)Nc2ccc(C(F)(F)F)cc2-c2cc(C(F)(F)F)ncn2)=C(O)C12CCC2")
57
>>> result_number("CN1N(Cc2ccc(OCCN3CCC(N4CCOCC4)CC3)c(F)c2F)C(=O)C(C(=O)Nc2ccc(C(F)(F)F)cc2-c2cc(C(F)(F)F)ncn2)=C(O)C12CCC2")
34
>>> result_number("C[C@]12CCCN1N(Cc1cccc(F)c1)C(=O)C(C(=O)Nc1ccc(C(F)(F)F)cc1-c1ccc(C(F)(F)F)nc1)=C2O")
76
>>> result_number("C[C@]12CCCN1N(Cc1c(F)cccc1F)C(=O)C(C(=O)Nc1ccc(C(F)(F)F)cc1-c1cc(C(F)(F)F)ncn1)=C2O")
98
>>> result_number("C[C@]12CCCN1N(Cc1c(F)cc(OCCCCCCOC[C@@H](O)CO)cc1F)C(=O)C(C(=O)Nc1ccc(C(F)(F)F)cc1-c1ccc(C(F)(F)F)nc1)=C2O")
73
